System: biotinyl-Phe-oxazolone
Assay: self-aminoacylation, catalytic enhancement (BFO) (fold over background); higher = more active; k-Seq, kA / k0A0; sequences stand for … in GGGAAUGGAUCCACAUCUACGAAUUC…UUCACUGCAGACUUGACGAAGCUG
Fewer inactive variants are shown than the library holds.
Label satisfied when self-aminoacylation is at or above 20; otherwise label not satisfied.

| Residue sequence | Group label |
| --- | --- |
| AUUGACCUAGGUCGUCGGGUG [Fam2.2 aminoacylation ribozyme variant] | not satisfied |
| AUUACCCUGCUCAUCGAGUCA [Fam2.1 aminoacylation ribozyme variant] | not satisfied |
| CUAUUUCAAAAAAUCGGUCUG [Fam1A.1 aminoacylation ribozyme variant] | not satisfied |
| AUUCCCCUGGUCAUAGAGUGA [Fam2.1 aminoacylation ribozyme variant] | satisfied |
| CUACUUCAAGCAAUCGGUUUG [Fam1A.1 aminoacylation ribozyme variant] | not satisfied |
| GUGCACCUAGGUCAUCGGGUG [Fam2.2 aminoacylation ribozyme variant] | satisfied |
| CUUCUUCAAACAAUCGGCCUG [Fam1A.1 aminoacylation ribozyme variant] | satisfied |
| AUUCACCUAUGUCAUCGGAUG [Fam2.2 aminoacylation ribozyme variant] | not satisfied |
| UAGUCUGCUAAUAGUCGCAAG [Fam3.1 aminoacylation ribozyme variant] | satisfied |
| CUACUUCAAACAAUCGCUCUU [Fam1A.1 aminoacylation ribozyme variant] | not satisfied |

I'd appreciate it if you could say whether CUUACCCUGGUCAUCAAGUGA [Fam2.1 aminoacylation ribozyme variant] has self-aminoacylation at least equal to 20.
not satisfied

Here is the next sequence: CUACUUCAAACAAUCUCUCUG [Fam1A.1 aminoacylation ribozyme variant]
not satisfied

Here is the next sequence: CUACUUCAAACAACCGGUCUG [Fam1A.1 aminoacylation ribozyme variant]
not satisfied

Here is the next sequence: AAGUUUGCUAAUAGCCGUAAG [Fam3.1 aminoacylation ribozyme variant]
not satisfied

Here is the next sequence: AUGCACCUAGUUCAUCGGGUG [Fam2.2 aminoacylation ribozyme variant]
not satisfied

Here is the next sequence: GCACACUUCAAGCAAUCGGUC [Fam1B.1 aminoacylation ribozyme variant]
satisfied

Here is the next sequence: AUGACCCGGGUCAUCGAGUGA [Fam2.1 aminoacylation ribozyme variant]
satisfied

Here is the next sequence: AUUACCCUGCUCAUCGCGUGA [Fam2.1 aminoacylation ribozyme variant]
satisfied

----------
Tested on: biotinyl-Phe-oxazolone
Experiment: self-aminoacylation, catalytic enhancement (BFO) (fold over background); higher = more active; k-Seq, kA / k0A0; sequences stand for … in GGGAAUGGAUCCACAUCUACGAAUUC…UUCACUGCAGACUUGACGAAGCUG
Variants at the floor of the assay were thinned out.
Quantity: self-aminoacylation
Hey, just send me the number, nothing else.

| Residue sequence | Target entity | self-aminoacylation |
| --- | --- | --- |
| CAACACUUGAAGCAAUCGGUC [Fam1B.1 aminoacylation ribozyme variant] | biotinyl-Phe-oxazolone | 0.601 |
| UUUCUUCAAACAAUCGGUCUG [Fam1A.1 aminoacylation ribozyme variant] | biotinyl-Phe-oxazolone | 7.67 |
| AAGUUUGUUAAUACUCGCAAG [Fam3.1 aminoacylation ribozyme variant] | biotinyl-Phe-oxazolone | 1.07 |
| AAGUUUGCUAAUAGUCGCCAG [Fam3.1 aminoacylation ribozyme variant] | biotinyl-Phe-oxazolone | 1.41 |
| AAGUUUGCCAAUAGUCACAAG [Fam3.1 aminoacylation ribozyme variant] | biotinyl-Phe-oxazolone | 1.1 |
| CCACACUUCAACCAUUCGGUC [Fam1B.1 aminoacylation ribozyme variant] | biotinyl-Phe-oxazolone | 6.93 |
| AAGUUAGCUAAUAGUCGCACG [Fam3.1 aminoacylation ribozyme variant] | biotinyl-Phe-oxazolone | 2.06 |
| AAAUUUGCUAAUAGUCGCAGG [Fam3.1 aminoacylation ribozyme variant] | biotinyl-Phe-oxazolone | 2.3 |
| CUUACCCUGGUCAUCUAGUGA [Fam2.1 aminoacylation ribozyme variant] | biotinyl-Phe-oxazolone | 29.7 |
| AAGUUUGCUAAUGGUAGCAAG [Fam3.1 aminoacylation ribozyme variant] | biotinyl-Phe-oxazolone | 1.12 |

Look up self-aminoacylation: CUACUUCAAACAAUCGUACUG [Fam1A.1 aminoacylation ribozyme variant]
1.35

Here is the next sequence: AUGUUUGCUGAUAGUCGCAAG [Fam3.1 aminoacylation ribozyme variant]
3.84

Here is the next sequence: AACUUUGCUAAUAGGCGCAAG [Fam3.1 aminoacylation ribozyme variant]
3.02

Here is the next sequence: AUCCACCUAGGUCAUCAGGUG [Fam2.2 aminoacylation ribozyme variant]
4.11

Here is the next sequence: AAGUUUGCUAAUAGUCUCGAG [Fam3.1 aminoacylation ribozyme variant]
2.01

Here is the next sequence: AUUACCCUUGUCAUCGCGUGA [Fam2.1 aminoacylation ribozyme variant]
85.5

----------
Measured self-aminoacylation, listed per entry for reference.
Tested on: biotinyl-Ile-oxazolone
Experiment: self-aminoacylation, catalytic enhancement (BIO) (fold over background); higher = more active; k-Seq, kA / k0A0; sequences stand for … in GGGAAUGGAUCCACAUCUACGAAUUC…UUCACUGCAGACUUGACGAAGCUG
Fewer inactive variants are shown than the library holds.
Hey, just send me the number, nothing else.

| Residue sequence | self-aminoacylation |
| --- | --- |
| AUGUUUGCUAAUAGUCGCAGG [Fam3.1 aminoacylation ribozyme variant] | 1.54 |
| AUGUAUGCUAAUAGUCGCAAG [Fam3.1 aminoacylation ribozyme variant] | 1.62 |
| CCACACUUUAAGCAAUCGUUC [Fam1B.1 aminoacylation ribozyme variant] | 0.669 |
| AUGACCCUUGUCAUCGAGUGA [Fam2.1 aminoacylation ribozyme variant] | 3.06 |
| CUACUUCAAGCAACCGGUCUG [Fam1A.1 aminoacylation ribozyme variant] | 0.883 |

Look up self-aminoacylation: CUUACCCUGGUCAUCGAGUGG [Fam2.1 aminoacylation ribozyme variant]
3.47

Here is the next sequence: CCACUCUUCAGGCAAUCGGUC [Fam1B.1 aminoacylation ribozyme variant]
1.31

Here is the next sequence: CCACACUUCAAGCAAGCUGUC [Fam1B.1 aminoacylation ribozyme variant]
0.504

Here is the next sequence: CUUACCCUGGUCAUCGACUGA [Fam2.1 aminoacylation ribozyme variant]
1.1

Here is the next sequence: CCACACUUCAAACAAACGGUC [Fam1B.1 aminoacylation ribozyme variant]
0.692

Here is the next sequence: AUACCCCUGGUCAUCGAGUGA [Fam2.1 aminoacylation ribozyme variant]
3.42

Here is the next sequence: AUUCACCUAAGUCAUUGGGUG [Fam2.2 aminoacylation ribozyme variant]
2.31

Here is the next sequence: CUAUUUCAAACAACCGGUCUG [Fam1A.1 aminoacylation ribozyme variant]
0.992

Here is the next sequence: AAGUUUGUUAAUACUCGCAAG [Fam3.1 aminoacylation ribozyme variant]
0.893

Here is the next sequence: CCCCACUUCAAGCAAUCGGUU [Fam1B.1 aminoacylation ribozyme variant]
2.66

Here is the next sequence: AUAACCCUGGUCAUCGAGUGA [Fam2.1 aminoacylation ribozyme variant]
8.43

Here is the next sequence: CUACACUUCAUGCAAUCGGUC [Fam1B.1 aminoacylation ribozyme variant]
0.707

----------
Tested on: biotinyl-Val-oxazolone
Experiment: self-aminoacylation, catalytic enhancement (BVO) (fold over background); higher = more active; k-Seq, kA / k0A0; sequences stand for … in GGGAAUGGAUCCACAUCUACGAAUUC…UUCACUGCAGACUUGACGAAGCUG
Variants at the floor of the assay were thinned out.
Label Satisfied when self-aminoacylation is at or above 1; otherwise label Not satisfied.

| Residue sequence | Target entity | Group label |
| --- | --- | --- |
| AUCACACUGGUCAUCGAGUGA [Fam2.1 aminoacylation ribozyme variant] | biotinyl-Val-oxazolone | Satisfied |
| AUUCACCUUGAUCAUCGGGUG [Fam2.2 aminoacylation ribozyme variant] | biotinyl-Val-oxazolone | Satisfied |
| ACCCACUUCAAGCAAUCGGUC [Fam1B.1 aminoacylation ribozyme variant] | biotinyl-Val-oxazolone | Satisfied |
| CCAGACUUCAAGCAAUCGGUG [Fam1B.1 aminoacylation ribozyme variant] | biotinyl-Val-oxazolone | Satisfied |
| CCACACUUCAUGCAAUCGUUC [Fam1B.1 aminoacylation ribozyme variant] | biotinyl-Val-oxazolone | Not satisfied |
| AUGUAUGCUAAUAGUCGCAAG [Fam3.1 aminoacylation ribozyme variant] | biotinyl-Val-oxazolone | Satisfied |
| AUUCACCUAGGUCGGCGGGUG [Fam2.2 aminoacylation ribozyme variant] | biotinyl-Val-oxazolone | Satisfied |

Now consider a different sequence.
I'd appreciate it if you could say whether AAGUUUGCAUAUAGUCGCAAG [Fam3.1 aminoacylation ribozyme variant] has self-aminoacylation at least equal to 1.
Not satisfied
